Just for reference, patent US20030068675 is where these values come from.

Molecular target: T1, ZFP SBS#207 (synthetic)
T1 chain: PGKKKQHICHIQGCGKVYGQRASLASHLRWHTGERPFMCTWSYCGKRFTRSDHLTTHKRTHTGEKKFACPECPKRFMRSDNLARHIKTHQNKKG
Assay: EMSA
Conditions: tags: MBP fusion
pKd: −log10 of the molar value.

binder: GAGTGGTTA (dsDNA) DNA 1: GAGTGGTTA DNA 2: TAACCACTC
pKd: 7.15
